subject_of_test: T1, human CD70 expressed on the cell surface of tumor cell lines (human, UniProt P32970 1-193)
T1 construct: whole, on cells
T1 sequence (looked up): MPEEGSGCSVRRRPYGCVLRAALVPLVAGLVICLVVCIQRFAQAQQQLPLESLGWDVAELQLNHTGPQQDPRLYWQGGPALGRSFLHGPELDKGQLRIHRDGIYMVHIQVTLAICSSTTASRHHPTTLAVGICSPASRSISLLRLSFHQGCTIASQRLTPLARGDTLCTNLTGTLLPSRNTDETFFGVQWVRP
assay_overview: flow cytometry on U251 cells, PE anti-human Fc, MFI; same fit as Table 6, which prints it in nM
endpoint: EC50 (µg/mL)
Report the figure in µg/mL without appending any unit label.

Form field: reported EC50 of 2E7, full IgG (antibody, V domains shown) VH: QVQLQESGPGLVKPSETLSLTCTVSGGSVSSDYYYWSWIRQPPGKGLEWLGYIYYSGSTNYNPSLKSRVTISVDTSKNQFSLKLRSVTTADTAVYYCARGDGDFLGVCFDYWGQGTLVTVSS VL: EIVLTQSPATLSLSPGERATLSCRASQSVSSYLAWYQQKPGQAPRLLIFDASNRATGIPARFSGSGSGTDFTLTISSLEPEDFAVYYCQQRSNWPLTFGGGTKVEIK 0.604
